Origin of measurements: ChEMBL document CHEMBL5257056

experiment: in vitro; details: dog, MDCK-MDR1

>  <item smiles>
O=C1NCCCNC(=O)c2cccc(n2)Nc2cc([nH]n2)[C@H]2CC[C@H](C2)O1

>  <Papp A→B at […], 5 µM, ×10⁻⁶ cm/s>
0.9

$$$$
